Tested on: H1915
test.summary: Proliferation assay (CellTiter Glo), H1915
Format: cell-based
run.parameters: H1915 (WT K-ras)
For each of the molecules below, state its Top inhibition %.
Give the number first and the unit second.

1) CC(=O)OCC1=C[C@H]2[C@@H]3C(C)(C)[C@]3(OC(C)=O)C[C@@H](C)[C@]2(O)C2C=C(C)C(=O)[C@@]2(O)C1 (stereo partly shown) [Compound K-101E]: 35.6%
2) CC(=O)O[C@@]12C[C@@H](C)[C@]3(O)C4C=C(C)C(=O)[C@@]4(O)CC(CO)=C[C@H]3[C@@H]1C2(C)C (stereo partly shown) [Compound K-101A, Prostratin]: 27.7%
3) CC(=O)O[C@@]12C[C@@H](C)[C@]3(O)C4C=C(C)C(O)[C@@]4(O)CC(CO)=C[C@H]3[C@@H]1C2(C)C (stereo partly shown) [Compound K-101C]: 28.9%

# next molecule below
[ask] Let me know recorded Top inhibition % for CC(=O)O[C@@]12C[C@@H](C)[C@]3(O)C4C=C(C)C(=O)[C@@]4(O)CC(COC(=O)CC(N)C(=O)[O-])=C[C@H]3[C@@H]1C2(C)C.[Na+] (stereo partly shown) [Compound K-101I] , thanks.
[reply] 16.4%

---

Test system: PKC isoforms in A549 cells
test.summary: Activation of PKC isoforms, Western blot, A549
Format: cell-based
run.parameters: 30 minutes
assay.metric: P-PKCδ (Thr505) and P-PKCδ/θ (Ser643/676)

1) C/C=C(/C)C(=O)O[C@H]1C(C)=C[C@]23C(=O)[C@@H](C=C(CO)[C@@H](O)[C@]12O)[C@H]1[C@@H](C[C@H]3C)C1(C)C [Compound K-102, Ingenol-3-angelate, reference compound]: dose-dependent increases
2) CC(=O)O[C@@]12C[C@@H](C)[C@]3(O)C4C=C(C)C(=O)[C@@]4(O)CC(CO)=C[C@H]3[C@@H]1C2(C)C (stereo partly shown) [Compound K-101A, Prostratin]: dose-dependent increases

---

System: LS180
test.summary: Proliferation assay (CellTiter Glo), LS180
Format: cell-based
run.parameters: Homo sapiens, absolute EC50, 96 hours, read-out: Ab EC50
pEC50: −log10 of the molar value.
assay.metric: pEC50

[ask] Read the entry CC(=O)O[C@@]12C[C@@H](C)[C@]3(O)C4C=C(C)C(=O)[C@@]4(O)CC(CO)=C[C@H]3[C@@H]1C2(C)C (stereo partly shown) [Compound K-101A, Prostratin] and write its reported pEC50.
[reply] < 4.52

---

Test system: HCT116
test.summary: Proliferation assay (CellTiter Glo), HCT116
Assay type: cell-based
run.parameters: relative EC50, 96 hours, read-out: Re EC50
assay.metric: EC50 (µM)
Give bare numbers, in µM.

[ask] Please look at this compound and report its EC50: CC(=O)OCC1=C[C@H]2[C@@H]3C(C)(C)[C@]3(OC(C)=O)C[C@@H](C)[C@]2(O)C2C=C(C)C(=O)[C@@]2(O)C1 (stereo partly shown) [Compound K-101E]
[reply] 6.64

---

Tested on: AsPC-1
test.summary: Proliferation assay (CellTiter Glo), AsPC-1
Format: cell-based
run.parameters: Homo sapiens, ASPC1, absolute EC50, 96 hours, read-out: Ab EC50
pEC50: −log10 of the molar value.
assay.metric: pEC50

[ask] Indicate its recorded pEC50; the compound in question is CC(=O)O[C@@]12C[C@@H](C)[C@]3(O)C4C=C(C)C(=O)[C@@]4(O)CC(CO)=C[C@H]3[C@@H]1C2(C)C (stereo partly shown) [Compound K-101A, Prostratin]
[reply] < 4.52

---

System: CCRF-CEM
test.summary: Proliferation assay (CellTiter Glo), CCRF-CEM
Type: cell-based
run.parameters: relative EC50, 96 hours, read-out: Re EC50
Give pEC50 for every item shown.
Give bare numbers, as −log10 of the molar value.

1. CC(=O)OCC1=C[C@H]2[C@@H]3C(C)(C)[C@]3(OC(C)=O)C[C@@H](C)[C@]2(O)C2C=C(C)C(=O)[C@@]2(O)C1 (some centres unmarked) [Compound K-101E]: 6.57

Turning now to a further compound:
[ask] Specify reported pEC50 for the compound shown: CC(=O)O[C@@]12C[C@@H](C)[C@]3(O)C4C=C(C)C(=O)[C@@]4(O)CC(COC(=O)CC(N)C(=O)[O-])=C[C@H]3[C@@H]1C2(C)C.[Na+] (some centres unmarked) [Compound K-101I]
[reply] 5.82

---

Tested on: HL60
test.summary: Proliferation assay (CellTiter Glo), HL60
Type: cell-based
run.parameters: Homo sapiens, HL-60, relative EC50, 96 hours, read-out: Re EC50
assay.metric: EC50
Please make sure the unit comes right after the number.

[ask] Retrieve EC50 on HL60; query CC(=O)O[C@@]12C[C@@H](C)[C@]3(O)C4C=C(C)C(=O)[C@@]4(O)CC(CO)=C[C@H]3[C@@H]1C2(C)C (stereo partly shown) [Compound K-101A, Prostratin]
[reply] 400 nM

---

Exercise: state measured EC50 for each of the molecules provided.
Tested on: Panc2.03
test.summary: Proliferation assay (CellTiter Glo), Panc2.03
Type: cell-based
run.parameters: relative EC50, 96 hours, read-out: Re EC50
Procedure: Briefly, cells at a density of 1,000-10,000 cells/well were seeded in 96-well plates and incubated at 37′C for 24 hours. A series of 9 different concentrations of compound stocks (500×) were created by 3-fold serial dilution in DMSO. […] After 96 hours of incubation, 50 μL of CellTiter Glo reagent (Promega) was added to each well and luminescence was measured after 10 minutes using EnVision (PerkinElmer). […]
In your response, the unit should come after the numeric value.

1) CC(=O)OCC1=C[C@H]2[C@@H]3C(C)(C)[C@]3(OC(C)=O)C[C@@H](C)[C@]2(O)C2C=C(C)C(=O)[C@@]2(O)C1 (some centres unmarked) [Compound K-101E]: 1.92 µM

Let's switch to this molecule now.
[ask] Tell us which EC50 value is on record for CC(=O)O[C@@]12C[C@@H](C)[C@]3(O)C4C=C(C)C(=O)[C@@]4(O)CC(COC(=O)CC(N)C(=O)[O-])=C[C@H]3[C@@H]1C2(C)C.[Na+] (some centres unmarked) [Compound K-101I]
[reply] 6.04 µM

---

Tested on: H441
test.summary: Proliferation assay (CellTiter Glo), H441
Assay type: cell-based
run.parameters: Homo sapiens, NCI-H441, relative EC50, 96 hours, read-out: Re EC50
assay.metric: EC50 (nM)
Numbers only, in nM.

[ask] Provide only the value of recorded EC50 for CC(=O)O[C@@]12C[C@@H](C)[C@]3(O)C4C=C(C)C(=O)[C@@]4(O)CC(CO)=C[C@H]3[C@@H]1C2(C)C (stereo partly shown) [Compound K-101A, Prostratin]
[reply] 320

---

Please provide measured EC50 for the entries that follow.
System: Panc2.13
test.summary: Proliferation assay (CellTiter Glo), Panc2.13
Type: cell-based
run.parameters: absolute EC50, 96 hours, read-out: Ab EC50

1) CC(=O)O[C@@]12C[C@@H](C)[C@]3(O)C4C=C(C)C(=O)[C@@]4(O)CC(COC(=O)CC(N)C(=O)[O-])=C[C@H]3[C@@H]1C2(C)C.[Na+] (stereo partly drawn) [Compound K-101I]: > 30 µM

Quick batch: EC50 for everything below.
1. CC(=O)O[C@@]12C[C@@H](C)[C@]3(O)C4C=C(C)C(=O)[C@@]4(O)CC(CO)=C[C@H]3[C@@H]1C2(C)C (stereo partly drawn) [Compound K-101A, Prostratin]
2. CC(=O)OCC1=C[C@H]2[C@@H]3C(C)(C)[C@]3(OC(C)=O)C[C@@H](C)[C@]2(O)C2C=C(C)C(=O)[C@@]2(O)C1 (stereo partly drawn) [Compound K-101E]

[reply]
1: > 30 µM; 2: > 30 µM

---

System: SW620
test.summary: Proliferation assay (CellTiter Glo), SW620
Assay type: cell-based
run.parameters: Homo sapiens, SW-620, absolute EC50, 96 hours, read-out: Ab EC50
assay.metric: EC50

[ask] Fill in: EC50 on SW620, entry CC(=O)O[C@@]12C[C@@H](C)[C@]3(O)C4C=C(C)C(=O)[C@@]4(O)CC(CO)=C[C@H]3[C@@H]1C2(C)C (stereo partly shown) [Compound K-101A, Prostratin]
[reply] > 30 µM

---

System: H441
test.summary: Proliferation assay (CellTiter Glo), H441
Assay type: cell-based
run.parameters: absolute EC50, 96 hours, read-out: Ab EC50
pEC50: −log10 of the molar value.
assay.metric: pEC50

1) CC(=O)O[C@@]12C[C@@H](C)[C@]3(O)C4C=C(C)C(O)[C@@]4(O)CC(CO)=C[C@H]3[C@@H]1C2(C)C (some centres unmarked) [Compound K-101C]: < 4.52

# next molecule below
[ask] Using the record for CC(=O)OCC1=C[C@H]2[C@@H]3C(C)(C)[C@]3(OC(C)=O)C[C@@H](C)[C@]2(O)C2C=C(C)C(=O)[C@@]2(O)C1 (some centres unmarked) [Compound K-101E] , state its measured pEC50.
[reply] < 4.52
